Could you please report measured Visual classification at the end of the tempering step (points system) for the items listed next?
experiment: Drying behaviour of crystallisates in dependence on residual moisture and product purity (tempering in sealed vials, visual points classification); assay type: physicochemical; set-up: key: 5 points=sample unchanged; 4 points=sample compacted/started to dissolve; 3 points=sample visibly started to dissolve; 2 points=sample cloudy highly viscous solution; 1 point=sample dissolved to clear solution; conditions: Temperature 90 °C, test duration 5 h, sealed vial, shaken
Note: the reply should be a number with no unit written.

Task item: Need Visual classification at the end of the tempering step (points system), item O=P(O)(O)CN(CCN(CP(=O)(O)O)CP(=O)(O)O)CCN(CP(=O)(O)O)CP(=O)(O)O [unwashed quality 51 [% by mass] residual moisture]
Reply: 1

Task item: May I ask what Visual classification at the end of the tempering step (points system) has been recorded for O=P(O)(O)CN(CCN(CP(=O)(O)O)CP(=O)(O)O)CCN(CP(=O)(O)O)CP(=O)(O)O [unwashed quality 36 [% by mass] residual moisture] ?
Reply: 1

Task item: Requested read-out: Visual classification at the end of the tempering step (points system). Entry: O=P(O)(O)CN(CCN(CP(=O)(O)O)CP(=O)(O)O)CCN(CP(=O)(O)O)CP(=O)(O)O [unwashed quality 47 [% by mass] residual moisture]
Reply: 1
